Recorded values, source patent US20240158392A1.

Molecular target: SIK2 (Homo sapiens, UniProt Q9H0K1)
Sequence (Q9H0K1 whole entry, species assumed): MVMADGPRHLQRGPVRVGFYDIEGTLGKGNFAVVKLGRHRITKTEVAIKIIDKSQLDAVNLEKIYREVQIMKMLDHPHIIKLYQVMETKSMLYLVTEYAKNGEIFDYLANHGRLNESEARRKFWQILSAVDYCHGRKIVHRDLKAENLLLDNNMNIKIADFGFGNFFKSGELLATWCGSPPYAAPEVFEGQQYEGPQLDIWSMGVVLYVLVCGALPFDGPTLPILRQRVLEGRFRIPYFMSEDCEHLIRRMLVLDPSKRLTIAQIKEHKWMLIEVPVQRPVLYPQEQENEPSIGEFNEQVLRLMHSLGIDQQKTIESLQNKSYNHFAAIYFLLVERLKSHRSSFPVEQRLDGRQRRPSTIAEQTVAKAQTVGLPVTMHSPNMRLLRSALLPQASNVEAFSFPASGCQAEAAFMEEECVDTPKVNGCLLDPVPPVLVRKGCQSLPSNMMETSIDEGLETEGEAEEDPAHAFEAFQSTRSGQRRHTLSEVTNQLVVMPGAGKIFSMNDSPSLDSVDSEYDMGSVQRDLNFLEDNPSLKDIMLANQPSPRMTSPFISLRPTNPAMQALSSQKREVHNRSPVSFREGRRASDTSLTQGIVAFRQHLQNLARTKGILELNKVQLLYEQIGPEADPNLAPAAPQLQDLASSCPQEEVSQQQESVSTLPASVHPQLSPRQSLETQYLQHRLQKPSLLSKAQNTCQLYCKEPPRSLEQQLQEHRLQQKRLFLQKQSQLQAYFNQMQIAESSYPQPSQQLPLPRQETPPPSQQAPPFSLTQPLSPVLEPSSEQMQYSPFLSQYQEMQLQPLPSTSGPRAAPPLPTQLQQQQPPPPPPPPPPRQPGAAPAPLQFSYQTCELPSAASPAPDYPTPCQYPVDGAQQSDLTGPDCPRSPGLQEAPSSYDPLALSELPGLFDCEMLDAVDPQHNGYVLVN
Assay: SIK2 Enzymatic Assay High Version 2 (High ATP)
Type: biochemical
Details: enzyme 6 nM, 6 mM ATP and 400 μM HDAC5tide (each 2× final concentration); 30 minutes pre-incubation, 2 hours; ADP-Glo Max luminescence; read-out: SIK2 high ATP IC50 (μM) (Test Example 2)
Procedure: All steps were performed at room temperature. Compounds were pre-plated onto an assay plate using an Echo acoustic dispenser (Labcyte, E550 or E555) at 80 nL per well. […] The plate is then read on the Pherastar (BMG Labtech) using a luminescence read. […]
Returns: string. Value is Criterion met if measured IC50 is below 0.01 µM, and Criterion not met if it is greater than or equal to it.

Reference set (3 entries):
>>> label_class("Cc1cc(Nc2cc3cc(-c4cc(OC(F)F)ncc4O[C@H]4CC[C@H](O)CC4)ccn3n2)nc(C)n1")
"Criterion met"
>>> label_class("Cc1cc(-c2ccn3nc(Nc4ccc5cc[nH]c5n4)cc3c2)c(OCC(C)(C)O)cn1")
"Criterion not met"
>>> label_class("Cc1cc(-c2ccn3nc(Nc4cc(C)nc(C)n4)cc3c2)c(OCC2CC(=O)N(C)C2)cn1 (racemic) [Example 542]")
"Criterion not met"

Enquiry: Strictly below 0.01 µM in IC50? CC#Cc1cc(-c2ccn3nc(Nc4cc(C)nc(C)n4)cc3c2)c(OC[C@]23CN[C@H](CO2)C3)cn1
Return: Criterion met

Enquiry: Strictly below 0.01 µM in IC50? Cc1cc(-c2ccn3nc(Nc4cc(C)nc(C)n4)cc3c2)c(OCC2CC(=O)N(C)C2)cn1 (single isomer, unassigned) [Example 547]
Return: Criterion not met

Enquiry: Strictly below 0.01 µM in IC50? Cc1cc(-c2ccn3nc(Nc4cc(C)nc(C)n4)cc3c2)c(OC[C@H]2CCS(=O)(=O)C2)cn1 (single isomer, unassigned)
Return: Criterion met

Enquiry: Strictly below 0.01 µM in IC50? Cc1cc(-c2cn3cc(NC(=O)C4CC4)nc3cn2)c(O[C@H]2CC[C@H](O)CC2)cn1
Return: Criterion not met
